# Test system: rodent lifetime carcinogenesis bioassay, tumor incidence TD50
# Test: carcinogenic potency in animals, long-term in vivo studies, CPDB compilation (AID 1745844)
# Run parameters: rat; strain Sprague-Dawley; females; by gavage; site: ear duct; lesion: carcinoma; dosed 104 weeks; study length 123 weeks
Property label: TD50 (mg/kg/day)
Unit mg/kg/day implied. Number only.

[in] Fill in the blank: the reported TD50 of Cc1cccc(C)c1 is ____.
[out] 18000

----------
Catalogue of compounds with associated TD50
# Test system: rodent lifetime carcinogenesis bioassay, tumor incidence TD50
# Test: carcinogenic potency in animals, long-term in vivo studies, CPDB compilation (AID 1745844)
# Run parameters: rat; strain Fischer 344; females; in feed; site: any site (literature study); lesion: several types; types named in the paper; dosed 78 weeks; study length 109 weeks
Activity calls are given as the source filed them. The rule behind the calls is not given here.

[
  {
    "Mol": "Cc1ccc2c(c1[N+](=O)[O-])C(=O)c1ccccc1C2=O",
    "TD50": "47.1 mg/kg/day"
  }
]

[in] Recorded TD50 of Nc1ccc2c(c1)C(=O)c1ccccc1C2=O , please.
[out] 124 mg/kg/day (inactive)

----------
# Tested on: rodent lifetime carcinogenesis bioassay, tumor incidence TD50
# Test: carcinogenic potency in animals, long-term in vivo studies, CPDB compilation (AID 1745844)
# Run parameters: rat; strain Fischer 344; females; in drinking water; site: subcutaneous tissue; lesion: fibrosarcoma + fibroma; dosed 98 weeks; study length 104 weeks
Property label: TD50

[in] Fill in the recorded TD50 for this molecule, with rodent lifetime carcinogenesis bioassay, tumor incidence TD50 as test system: Cc1ccc(S(=O)(=O)Oc2ccc(N=Nc3ccc(-c4ccc(N=Nc5c(O)ccc6cc(S(=O)(=O)O)cc(S(=O)(=O)O)c56)c(C)c4)cc3C)cc2)cc1
[out] 78.2 mg/kg/day

----------
# Tested on: rodent lifetime carcinogenesis bioassay, tumor incidence TD50
# Test: carcinogenic potency in animals, long-term in vivo studies, CPDB compilation (AID 1745844)
# Run parameters: mouse; strain B6C3F1; males; by gavage; site: adrenal gland; lesion: cortical adenoma; dosed 103 weeks; study length 104 weeks
Active and inactive are the calls of the source. The rule behind the calls is not given here.
Documented TD50 across a set of compounds

[
  {
    "Mol": "O=P(O)(O)O",
    "TD50": "5840 mg/kg/day (inactive)"
  }
]

Please look at the following compound next.
[in] Suppose we examine the compound OCc1ccccc1 ; what TD50 value has been reported?
[out] 1620 mg/kg/day (inactive)

----------
# System: rodent lifetime carcinogenesis bioassay, tumor incidence TD50
# Test: carcinogenic potency in animals, long-term in vivo studies, CPDB compilation (AID 1745844)
# Run parameters: mouse; strain ddNi; females; in feed; site: liver; lesion: several types; types named in the paper; dosed 160 weeks; study length 160 weeks
Property label: TD50

[in] What does the record list as TD50 for Cc1cc(O)c2c(c1O)C(=O)C13C(=C2O)C(=O)C2C(O)C1C1C(O)C3C(=O)C3=C(O)c4c(O)cc(C)c(O)c4C(=O)C321 (stereo unspecified) ?
[out] 79.4 mg/kg/day

----------
# System: rodent lifetime carcinogenesis bioassay, tumor incidence TD50
# Test: carcinogenic potency in animals, long-term in vivo studies, CPDB compilation (AID 1745844)
# Run parameters: hamster; strain Syrian Golden; males; by gavage; site: liver; lesion: hemangioma; dosed 90 weeks; study length 90 weeks
Active and inactive are the calls of the source. The rule behind the calls is not given here.
Property label: TD50

[in] // fetch rodent lifetime carcinogenesis bioassay, tumor incidence TD50 TD50 for N#[N+]c1ccccc1
[out] 293 mg/kg/day (inactive)

----------
# Test system: rodent lifetime carcinogenesis bioassay, tumor incidence TD50
# Test: carcinogenic potency in animals, long-term in vivo studies, CPDB compilation (AID 1745844)
# Run parameters: dog; strain Beagle; females; in feed; site: any site (literature study); lesion: several types; types named in the paper; dosed 376 weeks; study length 397 weeks
Calls of active or inactive are those of the source. How the calls were made is not given here.
Property label: TD50

[in] Look up TD50: ClC(Cl)Cl
[out] 10 mg/kg/day (inactive)

----------
# Test system: rodent lifetime carcinogenesis bioassay, tumor incidence TD50
# Test: carcinogenic potency in animals, long-term in vivo studies, CPDB compilation (AID 1745844)
# Run parameters: mouse; strain C57BL/10J; females; in feed; site: liver; lesion: hepatocellular carcinoma; dosed 97 weeks; study length 97 weeks
Property label: TD50

[in] Which TD50 value belongs to CC(=O)O[C@]1(C(C)=O)CC[C@H]2[C@@H]3C=C(Cl)C4=CC(=O)[C@@H]5C[C@@H]5[C@]4(C)[C@H]3CC[C@@]21C ?
[out] 254 mg/kg/day

----------
# System: rodent lifetime carcinogenesis bioassay, tumor incidence TD50
# Test: carcinogenic potency in animals, long-term in vivo studies, CPDB compilation (AID 1745844)
# Run parameters: rat; strain F344/DuCrj; males; in feed; site: stomach, glandular; lesion: sarcoma; dosed 104 weeks; study length 104 weeks
Property label: TD50 (mg/kg/day)
Numeric only. Scale: mg/kg/day

[in] Could you tell me which TD50 is on file for Cc1ccc(O)c(O)c1 ?
[out] 3830

----------
Listed here: items and their measured TD50.
# System: rodent lifetime carcinogenesis bioassay, tumor incidence TD50
# Test: carcinogenic potency in animals, long-term in vivo studies, CPDB compilation (AID 1745844)
# Run parameters: mouse; strain B6C3F1; males; in feed; site: liver; lesion: hepatocellular adenoma; dosed 104 weeks; study length 104 weeks
Calls of active or inactive are those of the source. How the calls were made is not given here.

[
  {
    "Molecule": "CCCc1c(OCCCCc2nn[nH]n2)ccc(C(C)=O)c1O",
    "TD50": "2740 mg/kg/day"
  },
  {
    "Molecule": "CC(C)(CCCOc1ccc(OCCCC(C)(C)C(=O)O)c(-c2ccccc2)c1)C(=O)O",
    "TD50": "107 mg/kg/day"
  },
  {
    "Molecule": "ClC=CCCl",
    "TD50": "78.2 mg/kg/day (inactive)"
  }
]

[in] Provide value of TD50 for this record tested with rodent lifetime carcinogenesis bioassay, tumor incidence TD50: Cc1ncc[nH]1
[out] 648 mg/kg/day

[in] Next entry: Cc1cc(C)nc(NS(=O)(=O)c2ccc(N)cc2)n1
[out] 14900 mg/kg/day

[in] Can you handle CN(C)CCOC(C)(c1ccccc1)c1ccccn1 (stereo not drawn) next?
[out] 144 mg/kg/day

[in] For Nc1nc(N)c2nc(-c3ccccc3)c(N)nc2n1 then?
[out] 54.8 mg/kg/day

[in] Query C[C@@H]1Cc2c(Cl)cc(C(=O)N[C@@H](Cc3ccccc3)C(=O)O)c(O)c2C(=O)O1 next
[out] 48.1 mg/kg/day

----------
# System: rodent lifetime carcinogenesis bioassay, tumor incidence TD50
# Test: carcinogenic potency in animals, long-term in vivo studies, CPDB compilation (AID 1745844)
# Run parameters: mouse; strain B6C3F1; males; by gavage; site: liver; lesion: hepatocellular adenoma; dosed 102 weeks; study length 103 weeks
Property label: TD50 (mg/kg/day)
Provide only the numeric value, understood in mg/kg/day.

[in] Any idea what TD50 was measured for CC(C)=CCl ?
[out] 87.1

----------
# System: rodent lifetime carcinogenesis bioassay, tumor incidence TD50
# Test: carcinogenic potency in animals, long-term in vivo studies, CPDB compilation (AID 1745844)
# Run parameters: mouse; strain Swiss albino; males; in drinking water; site: liver; lesion: hepatoma; dosed 118 weeks; study length 118 weeks
Active and inactive are the calls of the source. How the calls were made is not given here.
Property label: TD50

[in] Recorded TD50 of NNC(N)=O , please.
[out] 1420 mg/kg/day (inactive)

----------
# System: rodent lifetime carcinogenesis bioassay, tumor incidence TD50
# Test: carcinogenic potency in animals, long-term in vivo studies, CPDB compilation (AID 1745844)
# Run parameters: rat; strain Fischer 344; females; by gavage; site: liver; lesion: hepatocellular adenoma + hepatocellular carcinoma + neoplastic nodule; dosed 103 weeks; study length 103 weeks
Property label: TD50 (mg/kg/day)
I only need the number, in mg/kg/day, no unit after it.

[in] If you can, please state the reported TD50 value of ClC=C(Cl)Cl .
[out] 9980

----------
# Tested on: rodent lifetime carcinogenesis bioassay, tumor incidence TD50
# Test: carcinogenic potency in animals, long-term in vivo studies, CPDB compilation (AID 1745844)
# Run parameters: mouse; strain Han:NMRI; females; inhaled; site: any site (literature study); lesion: malignant tumor; dosed 78 weeks; study length 130 weeks
Calls of active or inactive are those of the source. The rule behind the calls is not given here.
Property label: TD50

[in] Item under review: ClC=C(Cl)Cl . Reported TD50?
[out] 573 mg/kg/day (inactive)

----------
# Test system: rodent lifetime carcinogenesis bioassay, tumor incidence TD50
# Test: carcinogenic potency in animals, long-term in vivo studies, CPDB compilation (AID 1745844)
# Run parameters: mouse; strain B6C3F1; males; inhaled; site: liver; lesion: hepatocellular carcinoma; dosed 40 weeks; study length 104 weeks
Property label: TD50 (mg/kg/day)
Write down the numeric answer in mg/kg/day and omit the unit.

[in] Please give the measured TD50 for this molecule: C=CC=C
[out] 62
